method: Selectivity ratio of Ki of GRapha to Ki of estrogen receptor alpha
endpointLabel: Ratio Ki

Entry CC(C)(C(=O)Nc1nccs1)[C@@H](c1ccccc1)c1ccc(O)c(Br)c1 , Ratio Ki reported as > 6800

Entry CC(C)(C(=O)Nc1nccs1)[C@@H](c1ccccc1)c1ccc(O)cc1 , Ratio Ki reported as > 6800

Entry CC(C)(C(=O)Nc1nccs1)[C@H]1c2ccccc2Oc2cc(O)ccc21 , Ratio Ki reported as > 6800

Entry CC(C)(C(=O)Nc1nccs1)[C@@H](c1ccccc1)c1ccc(O)c(F)c1 , Ratio Ki reported as > 6800

Entry CC(C)(C(=O)Nc1nncs1)[C@H]1c2ccccc2Oc2cc(O)ccc21 , Ratio Ki reported as > 6800
